Kindly supply the reported IC50 values for the records listed here.
- TESTED_TARGET: G12V-mutant human KRAS (amino acid residues 1-188) (Homo sapiens, UniProt P01116, G12V)
- Construct: G12V-mutant human KRAS (amino acid residues 1-188) with FLAG tag was purified from E. coli; made in house; host or cells: E. coli
- ASSAY_NOTES: KRAS Binding Competition Assay (AlphaScreen; biotinylated KRpep-2d analogue), G12V
- EXPERIMENTAL_SETUP: geometric mean, read-out: KRAS GMean IC50 (uM) MUTATION: G12V

Completed entries (count: 3):
# COMPOUND, IC50
data = [
    ("CN1CCC[C@H]1COc1nc(N2[C@@H]3CC[C@H]2CNC3)c2ccc(-c3cc(CO)cc4ccccc34)cc2n1", "10 to 100 µM"),
    ("CN1C(=O)C(CC(=O)N2[C@@H]3CC[C@H]2CN(c2nc(OC[C@@H]4CCCN4C)nc4cc(-c5cc(O)cc6ccccc56)ccc24)C3)N(C)C1=O (stereo partly drawn)", "10 to 100 µM"),
    ("CN1CCC[C@H]1COc1nc(N2C[C@H]3CC[C@@H](C2)N3C(N)=O)c2ccc(-c3cc(O)cc4ccccc34)c(F)c2n1", "0.0001 to 10 µM"),
]

List reported IC50 for each of these compounds:
1. CN1CCC[C@H]1COc1nc(N2C[C@H]3CC[C@@H](C2)N3)c2ccc(-c3nc(N)cc4cccnc34)c(F)c2n1
2. O=C(Cn1ccnc1)N1[C@@H]2CC[C@H]1CN(c1nc(OCC34CCCN3CCC4)nc3c(F)c(-c4cc(O)cc5ccccc45)ccc13)C2
3. CN1CCCC1COc1nc(N2C[C@H]3CC[C@@H](C2)N3C(=O)NC2CN3CCC2CC3)c2ccc(-c3cc(O)cc4ccccc34)c(F)c2n1 (stereo partly drawn)

A.
1: 100 to 1000 µM; 2: 0.0001 to 10 µM; 3: 10 to 100 µM

* * *

Kindly supply the reported IC50 values for the records listed here.
- TESTED_TARGET: G12D-mutant human KRAS (amino acid residues 1-188) (Homo sapiens, UniProt P01116, G12D)
- Construct: G12D or G12C-mutant human KRAS (amino acid residues 1-188) with FLAG tag; made in house; host or cells: E. coli
- ASSAY_NOTES: KRAS Binding Disruption Assay (AlphaScreen; biotinylated KRpep-2d analogue or RAF1-RBD), G12D
- EXPERIMENTAL_SETUP: KRAS G12D; geometric mean; read-out: KRAS GMean IC50 (uM) MUTATION: G12D

Completed entries (count: 4):
# MOLECULE, IC50
measured = [
    ("CN1CCC[C@H]1COc1nc(N2[C@@H]3CC[C@H]2CN(C(=O)CCC2CCCNC2)C3)c2ccc(-c3cc(O)cc4ccccc34)cc2n1 (stereo partly drawn)", "10 to 100 µM"),
    ("CN1CCC[C@H]1COc1nc(N2C[C@H]3CC[C@@H](C2)N3CC(O)CO)c2ccc(-c3cc(O)cc4ccccc34)c(F)c2n1 (stereo partly drawn)", "0.0001 to 10 µM"),
    ("O=C(c1n[nH]c(=O)[nH]1)N1[C@@H]2CC[C@H]1CN(c1nc(OCC34CCCN3CCC4)nc3cc(-c4cc(O)cc5ccccc45)ccc13)C2", "0.0001 to 10 µM"),
    ("NCCCN1CCC[C@H]1COc1nc(N2C[C@H]3CC[C@@H](C2)N3)c2ccc(-c3cc(O)cc4ccccc34)c(F)c2n1", "0.0001 to 10 µM"),
]

List reported IC50 for each of these molecules:
1. Fc1cc2c(N3C[C@H]4CC[C@@H](C3)N4)nc(OCC34CCCN3CCC4)nc2c(F)c1-c1c[nH]c2cccc(C(F)(F)F)c12
2. OCC1(COc2nc(N3C[C@H]4CC[C@@H](C3)N4)c3ccc(-c4cc(O)cc5ccccc45)c(F)c3n2)CC(O)C1 (stereo partly drawn)

A.
["0.0001 to 10 µM", "0.0001 to 10 µM"]
